# Tested System: human TRPV4 (Homo sapiens)
# Construct: expressed in transfected cells; host or cells: CHO-K1
# Sequence (Q9HBA0 whole entry): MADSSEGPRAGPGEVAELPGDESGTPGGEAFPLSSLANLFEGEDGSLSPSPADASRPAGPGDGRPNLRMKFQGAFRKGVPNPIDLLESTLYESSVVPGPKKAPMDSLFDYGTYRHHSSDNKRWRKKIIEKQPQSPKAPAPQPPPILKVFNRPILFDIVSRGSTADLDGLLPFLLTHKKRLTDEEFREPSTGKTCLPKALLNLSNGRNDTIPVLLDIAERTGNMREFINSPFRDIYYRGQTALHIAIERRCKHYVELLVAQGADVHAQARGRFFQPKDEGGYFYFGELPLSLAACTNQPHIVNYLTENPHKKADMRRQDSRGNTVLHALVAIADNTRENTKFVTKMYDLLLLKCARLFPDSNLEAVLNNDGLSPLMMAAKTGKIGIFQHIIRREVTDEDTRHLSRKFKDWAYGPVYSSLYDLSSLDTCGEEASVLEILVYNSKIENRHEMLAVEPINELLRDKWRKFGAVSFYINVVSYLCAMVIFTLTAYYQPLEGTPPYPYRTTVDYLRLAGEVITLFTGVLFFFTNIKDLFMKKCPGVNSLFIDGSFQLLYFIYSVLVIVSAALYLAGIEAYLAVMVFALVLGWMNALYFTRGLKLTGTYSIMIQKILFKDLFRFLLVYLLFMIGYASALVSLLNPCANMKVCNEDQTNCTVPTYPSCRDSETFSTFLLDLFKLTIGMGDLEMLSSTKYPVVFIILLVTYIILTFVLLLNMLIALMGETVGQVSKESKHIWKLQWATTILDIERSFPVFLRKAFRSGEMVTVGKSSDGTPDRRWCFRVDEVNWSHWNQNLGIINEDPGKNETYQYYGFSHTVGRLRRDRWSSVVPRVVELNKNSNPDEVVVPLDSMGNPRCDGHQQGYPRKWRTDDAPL
# Experiment Notes: Test Example 1 Measurement of TRPV4 inhibitory activity (IC50 value)
# Assay type: cell-based
# Test Settings: CHO-K1 cells stably expressing human TRPV4; Fluo 4-AM, FLIPR TETRA; final 1 μmol/L 4α-PDD
pIC50: −log10 of the molar value.
Measurement Kind: pIC50

Molecule | Tested System | Measurement Kind | Experimental Result
Cc1nc([C@H](C)O)sc1-c1csc(Nc2ccc(COC(C(F)(F)F)C(F)(F)F)cn2)n1 | human TRPV4 (Homo sapiens) | pIC50 | 8.09

[1] Cc1nc([C@H](C)O)sc1-c1csc(Nc2ccc3c(n2)CCCC3Nc2ccc(Cl)cc2F)n1 (stereo partly shown)
[2] Cc1nc(C)c(-c2csc(Nc3ccc(S(=O)(=O)Cc4ccc(Cl)cc4)cn3)n2)s1
Looking at recorded values for pIC50, does 1 or 2 come in lower? Kindly state the label of the option you pick.
2
(2: 7.43, 1: 7.85)

[I] Cc1nc(C)c(-c2csc(Nc3ccc(C(C)Nc4ccc(Cl)cc4)cn3)n2)s1 (stereo not shown)
[II] Cc1nc(C)c(-c2csc(Nc3ccc(OCc4ccc(Cl)cc4)cn3)n2)s1
[III] COCCN(Cc1ccc(Nc2nc(-c3sc(C)nc3C)cs2)nc1)c1ccc(Cl)cc1F
// ascending sort on recorded pIC50 I'd appreciate it if you listed the labels in the requested order.
II, I, III

[A] Cc1nc(C)c(-c2csc(Nc3ccc(CNc4ccc(Cl)cc4F)cn3)n2)o1
[B] Cc1nc(C)c(-c2csc(Nc3ccc(C(=O)Nc4cccnc4)cn3)n2)s1
Looking at recorded values for pIC50, does A or B come in lower? Kindly state the label of the option you pick.
A

[1] Cc1nc(C)c(-c2csc(Nc3ccc(CNc4ccc(Cl)cc4F)cn3)n2)s1
[2] Cc1nc(C)c(-c2csc(Nc3ccc(/C=C/c4ccc(Cl)cc4)cn3)n2)s1
Looking at recorded values for pIC50, does 1 or 2 come in lower? Kindly state the label of the option you pick.
2
(2: 7.57, 1: 8.92)

[1] Cc1nc(C)c(-c2csc(Nc3ccc(C(=O)Cc4ccc(Cl)cc4)cn3)n2)s1
[2] CC(O)c1nc(CCO)c(-c2csc(Nc3ccc(CNc4ccc(Cl)cc4F)cn3)n2)s1 (stereo not shown)
Looking at recorded values for pIC50, does 1 or 2 come in lower? Kindly state the label of the option you pick.
2
